Tested on: OCI-AML2
Experiment: cell viability relative to vehicle control; higher = less cytotoxic;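 further: after 48 h exposure read by CellTiter-Glo luminescence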
Conditions: 10 µM; SRSF2 genotype: wt/wt
# cell viability annotations
Number in %, nothing else.

As a guide, the following entries are already answered.
[
  {
    "Molecule": "CO[C@H]1C(=O)[C@]2(C)[C@@H](OC)C[C@H]3OC[C@@]3(OC(C)=O)[C@H]2[C@H](OC(=O)c2ccccc2)[C@]2(O)C[C@H](OC(=O)[C@H](O)[C@@H](NC(=O)OC(C)(C)C)c3ccccc3)C(C)=C1C2(C)C",
    "cell viability [%]": 16
  },
  {
    "Molecule": "COC(=O)Nc1nc2cc(C(=O)c3cccs3)ccc2[nH]1",
    "cell viability [%]": 7.85
  },
  {
    "Molecule": "CC(C)(C)c1ccc(S(=O)(=O)NCc2ccc(C(=O)Nc3cccnc3)cc2)cc1",
    "cell viability [%]": 5.41
  },
  {
    "Molecule": "O=C(CCCCCCC(=O)N/N=C/c1ccc(N(c2ccccc2)c2ccccc2)cc1)NO",
    "cell viability [%]": 1.98
  },
  {
    "Molecule": "Cc1cc(-c2nc(-c3ccc(OC(F)(F)F)cc3)no2)nn1Cc1ccnc(N2CCN(C3CC3)CC2)c1",
    "cell viability [%]": 46.9
  }
]

Exercise: Please state recorded cell viability (tested on OCI-AML2) of CC[N+](CC)(CC)CCOc1cccc(OCC[N+](CC)(CC)CC)c1OCC[N+](CC)(CC)CC [Gallamine triethiodide (Flaxedil)]
Solution: 95.4

Exercise: Please state recorded cell viability (tested on OCI-AML2) of CCC(=O)NC[C@@H]1C[C@H]1c1cccc2c1CCO2
Solution: 99.3

Exercise: # get_value(readout= cell viability, system= OCI-AML2) for OCC(CO)N[C@H]1C[C@](O)(CO)[C@@H](O)[C@H](O)[C@H]1O
Solution: 109

---

System: OCI-AML2
Assay: cell viability relative to vehicle control; higher = less cytotoxic
Details: 10 µM; SRSF2 genotype: P95H/wt
Quantity: cell viability (%)
Note: unit % is implicit; provide only the numeric part.

[
  {
    "Compound": "CC(=O)O[C@]1(C)CC[C@@]23C[C@H]1C(C)(C)[C@@H]2CC[C@H]3C [Cedryl acetate]",
    "System tested": "OCI-AML2",
    "Quantity": "cell viability",
    "Experimental value": 112
  },
  {
    "Compound": "C#C[C@]1(O)CC[C@H]2[C@@H]3CCC4=CC(=O)CC[C@@H]4[C@H]3CC[C@@]21C [Norethindrone (Norethisterone)]",
    "System tested": "OCI-AML2",
    "Quantity": "cell viability",
    "Experimental value": 107
  },
  {
    "Compound": "CC1=CC(=O)[C@@H]2C[C@H]1C2(C)C [(-)-Verbenone]",
    "System tested": "OCI-AML2",
    "Quantity": "cell viability",
    "Experimental value": 87.2
  }
]

Continue with the compound presented below.
Exercise: What measured cell viability goes with Nc1nc(=O)n([C@@H]2CS[C@H](CO)O2)cc1F [Emtricitabine] ?
Solution: 102

---

Test system: MOLM14
Assay: cell viability relative to vehicle control; higher = less cytotoxic
Conditions: 10 µM; SRSF2 genotype: SRSF2 P95H/wt
Reported cell viability values for the following molecules.
# output: bare number, implied unit %

Recorded results for 2 molecules are shown here.
[
  {
    "Molecule": "Cc1cc(N2CCCCC2)nc2ccccc12",
    "Unit tag": "%",
    "cell viability": 98.8
  },
  {
    "Molecule": "Cc1ccc(Nc2c(F)cccc2Cl)c(CC(=O)O)c1",
    "Unit tag": "%",
    "cell viability": 100
  }
]

Exercise: // returns reported cell viability for input C=C1CC[C@H]2O[C@]2(C)CC[C@@H]2[C@@H]1CC2(C)C [Caryophyllene oxide]
Solution: 103

Exercise: I am curious: what cell viability value has been reported for CC1(C)C(O[C@@H]2OC[C@@H](O)[C@H](O)[C@H]2O)CC[C@]23CC24CC[C@]2(C)[C@@H]([C@@]5(C)CC[C@@H](C(C)(C)O)O5)[C@H](O)C[C@@]2(C)C4C[C@@H](O[C@@H]2O[C@H](CO)[C@@H](O)[C@H](O)[C@H]2O)C13 (stereo not given in full) [Astragaloside IV] ?
Solution: 108

Exercise: Name the reported cell viability value associated with the molecule COc1cc(F)c(F)c(Nc2ccc(I)cc2F)c1NS(=O)(=O)C1(C[C@H](O)CO)CC1 [Refametinib (RDEA119, Bay 86-9766)]
Solution: 30.7

---

Test system: MOLM14
Assay: cell viability relative to vehicle control; higher = less cytotoxic
Settings: 10 µM; SRSF2 genotype: SRSF2 P95H/wt
Counter-ions that a name gives are not always drawn.
Quantity: cell viability (%)
Quick note: give the figure in %, leave out the unit.

Exercise: I'd like to know its cell viability. The compound in question is C=CC(=O)Nc1cccc(Oc2nc(Nc3ccc(N4CCN(C)CC4)cc3)nc3ccsc23)c1
Solution: 0.27

Exercise: Dear colleague, I am looking for the recorded cell viability of the following compound: COCCNCc1ccc(-c2cc3nccc(Oc4ccc(NC(=O)C5(C(=O)Nc6ccc(F)cc6)CC5)cc4F)c3s2)nc1
Solution: 5.4

Exercise: Param item = CN(C)c1cc(NC(=O)CNC(C)(C)C)c(O)c2c1CC1CC3C(N(C)C)C(=O)C(C(N)=O)=C(O)C3(O)C(=O)C1=C2O (centres undefined) ; retrieve measured cell viability.
Solution: 99.2

Exercise: Value lookup for cell viability; key = CCOc1cc(C=O)ccc1OC(C)=O [Ethyl vanillin acetate]
Solution: 96.4

Exercise: I would be grateful if you could share the reported cell viability for CCCNC(=O)Nc1ccc(Oc2ncnc3cc(OC)c(OC)cc23)cc1Cl .
Solution: 92

Exercise: Name the recorded cell viability for COc1ccc(CCC(=O)c2c(O)cc(O[C@@H]3O[C@H](CO)[C@@H](O)[C@H](O)[C@H]3O[C@@H]3O[C@@H](C)[C@H](O)[C@@H](O)[C@H]3O)cc2O)cc1O [Neohesperidin dihydrochalcone (Nhdc)] .
Solution: 82.3

Exercise: cell viability for CCOC(=O)c1ccc(NC2CCCCC2)c(N)c1 ?
Solution: 104

Exercise: Which cell viability value is on record for CC(C)(C)NC(=O)[C@H]1CC[C@H]2[C@@H]3CC[C@H]4NC(=O)C=C[C@]4(C)[C@H]3CC[C@]12C [Finasteride] ?
Solution: 101

Exercise: Tell me the measured cell viability of COc1cc(OC)c(C(=O)CCCN2CCCC2)c(OC)c1 [Buflomedil HCl] , please.
Solution: 112

Exercise: Given the entry CC(C)n1ncnc1-c1cn2c(n1)-c1ccc(O[C@@H](C)C(N)=O)cc1OCC2 , report its measured cell viability.
Solution: 50.9

Exercise: May I ask what cell viability has been recorded for CO[C@H]1C[C@@H]2CC[C@@H](C)[C@@](O)(O2)C(=O)C(=O)N2CCCC[C@H]2C(=O)O[C@H]([C@H](C)C[C@@H]2CC[C@@H](OP(C)(C)=O)[C@H](OC)C2)CC(=O)[C@H](C)/C=C(\C)[C@@H](O)[C@@H](OC)C(=O)[C@H](C)C[C@H](C)/C=C/C=C/C=C/1C ?
Solution: 54.2

Exercise: Fill in the blank: the reported cell viability of CNc1cccc(CCOc2ccc3c(c2)CN(CC(F)(F)F)C(=O)[C@H](CC(=O)O)C3)n1 is ____.
Solution: 97.7

Exercise: // cell viability lookup, key: Cc1nnsc1C(=O)Nc1ccc(-n2nc(C(F)(F)F)cc2C(F)(F)F)cc1
Solution: 107

Exercise: What value of cell viability has been reported for the following compound? CC1=C(C/C=C(\C)CCC[C@H](C)CCC[C@H](C)CCCC(C)C)C(=O)c2ccccc2C1=O
Solution: 88.2

Exercise: Can you look up the measured cell viability of COc1cc(NS(=O)(=O)c2ccc(N)cc2)nc(OC)n1 [SulfadiMethoxine sodium] for me?
Solution: 106

Exercise: Quick check: cell viability of CCCCNc1ncc(C(=O)NCc2ccc(-n3ccnc3)cc2)c(NC2CCC(O)CC2)n1 (centres undefined) ?
Solution: 25.6

Exercise: # query: cell viability of entry COc1cc(Nc2ncc(F)c(Nc3ccc4c(n3)N(COP(=O)(O)O)C(=O)C(C)(C)O4)n2)cc(OC)c1OC [R788 (Fostamatinib)]
Solution: 3.63

---

Listing of entries alongside the reported cell viability.
System: MARIMO
Assay: cell viability relative to vehicle control; higher = less cytotoxic
Details: 10 µM; SRSF2 genotype: SRSF2 wt/wt
// note: answer is a bare numeric in %

Would you please look over these solved cases?
[
  {
    "Compound": "CCN(CC)CC#CCOC(=O)C(O)(c1ccccc1)C1CCCCC1 (centres undefined) [Oxybutynin chloride]",
    "Quantity": "cell viability",
    "Experimental value": 96
  },
  {
    "Compound": "CC(C(=O)O)c1ccc2c(c1)Cc1cccnc1O2 (centres undefined)",
    "Quantity": "cell viability",
    "Experimental value": 107
  },
  {
    "Compound": "CC1=C(/C=C/C(C)=C/C=C/C(C)=C/C=C/C=C(C)/C=C/C=C(C)/C=C/C2=C(C)CCCC2(C)C)C(C)(C)CCC1",
    "Quantity": "cell viability",
    "Experimental value": 101
  }
]

Exercise: What does the data say about its cell viability? Entry: CN1CCN(S(=O)(=O)c2ccc(-c3cnc(N)c(C(=O)Nc4cccnc4)n3)cc2)CC1
Solution: 114
